Tested on: PSMA-expressing LNCAP cancer xenografts
Test: Biodistribution and tumor-to-background contrast ratios of 18F-labeled tracers
Type: in vivo, mouse (NODSCID 1L2RγKO male mice)
Settings: 1 h
Measurement type: Biodistribution Tumor (% ID/g)
Give just the number in % ID/g; leave the unit off.

These solved cases illustrate the format of a correct answer.
compound="C[N+](C)(Cc1cn(CC(=O)NC[C@H]2CC[C@H](C(=O)N[C@@H](Cc3ccc4ccccc4c3)C(=O)NCCCC[C@H](NC(=O)N[C@@H](CCC(=O)O)C(=O)O)C(=O)O)CC2)nn1)C[B-](F)(F)[18F] [^18F-HTK01157]" measurement_type="Biodistribution Tumor" measured_number=14.0
compound="C[N+](C)(Cc1cn(CC(=O)NCCOCCOCCC(=O)N[C@@H](Cc2ccc3ccccc3c2)C(=O)NCCCC[C@H](NC(=O)N[C@@H](CCC(=O)O)C(=O)O)C(=O)O)nn1)C[B-](F)(F)[18F] [^18F-HTK01146]" measurement_type="Biodistribution Tumor" measured_number=5.09

Consider now this further compound.
Asked: Which measured Biodistribution Tumor value corresponds to O=C(O)CC[C@H](NC(=O)N[C@@H](CCCCNC(=O)c1ccc(Cn2cc(C[n+]3ccc([B-](F)(F)[18F])cc3)nn2)nc1)C(=O)O)C(=O)O [^18F-PSMA PyrBF3] ?
Given back: 6.26

* * *

System: PSMA-expressing LNCAP cancer xenografts
Experiment: Biodistribution and tumor-to-background contrast ratios of 18F-labeled tracers
Assay type: in vivo, mouse (NODSCID 1L2RγKO male mice)
Details: 1 h
Description: LNCap cell line was obtained from ATCC (LNCaP clone FGC, CRL-1740). It was established from a metastatic site of left supraclavicular lymph node of human prostatic adenocarcinoma. […] The collected cells number was counted with a Hausser Scientific (Horsham, Pa.) Hemacytometer. […] PET imaging experiments were conducted using Siemens Inveon micro PET/CT scanner. […] Then, a 10-min static PET imaging was performed to determined uptake in tumor and other organs. […]
Measurement type: Biodistribution Blood (% ID/g)
Give just the number in % ID/g; leave the unit off.

Asked: Which measured Biodistribution Blood value corresponds to C[N+](C)(Cc1cn(CC(=O)NC[C@H]2CC[C@H](C(=O)N[C@@H](Cc3ccc4ccccc4c3)C(=O)NCCCC[C@H](NC(=O)N[C@@H](CCC(=O)O)C(=O)O)C(=O)O)CC2)nn1)C[B-](F)(F)[18F] [^18F-HTK01157] ?
Given back: 0.89

* * *

System: PSMA-expressing LNCAP cancer xenografts
Experiment: Biodistribution and tumor-to-background contrast ratios of 18F-labeled tracers
Format: in vivo, mouse (NODSCID 1L2RγKO male mice)
Details: 1 h
Procedure: LNCap cell line was obtained from ATCC (LNCaP clone FGC, CRL-1740). It was established from a metastatic site of left supraclavicular lymph node of human prostatic adenocarcinoma. […] The collected cells number was counted with a Hausser Scientific (Horsham, Pa.) Hemacytometer. […] PET imaging experiments were conducted using Siemens Inveon micro PET/CT scanner. […] Then, a 10-min static PET imaging was performed to determined uptake in tumor and other organs. […]
Entries and their Biodistribution Spleen
Give just the number in % ID/g; leave the unit off.

These solved cases illustrate the format of a correct answer.
compound="O=C(O)CC[C@H](NC(=O)N[C@@H](CCCCNC(=O)c1ccc(Cn2cc(C[n+]3ccc([B-](F)(F)[18F])cc3)nn2)nc1)C(=O)O)C(=O)O [^18F-PSMA PyrBF3]" measurement_type="Biodistribution Spleen" measured_number=3.36
compound=C[N+](C)(Cc1cn(Cc2ccc(C(=O)NCCCC[C@H](NC(=O)N[C@@H](CCC(=O)O)C(=O)O)C(=O)O)cc2)nn1)C[B-](F)(F)[18F] measurement_type="Biodistribution Spleen" measured_number=5.01
compound="C[N+](C)(Cc1cn(Cc2ccc(C(=O)NCCCC[C@H](NC(=O)N[C@@H](CCC(=O)O)C(=O)O)C(=O)O)cn2)nn1)C[B-](F)(F)[18F] [^18F-HTK01130]" measurement_type="Biodistribution Spleen" measured_number=0.95

Asked: Which measured Biodistribution Spleen value corresponds to C[N+](C)(Cc1cn(CC(=O)NC[C@H]2CC[C@H](C(=O)N[C@@H](Cc3ccc4ccccc4c3)C(=O)NCCCC[C@H](NC(=O)N[C@@H](CCC(=O)O)C(=O)O)C(=O)O)CC2)nn1)C[B-](F)(F)[18F] [^18F-HTK01157] ?
Given back: 2.67

Asked: Which measured Biodistribution Spleen value corresponds to C[N+](C)(Cc1cn(CC(=O)NCCOCCOCCC(=O)N[C@@H](Cc2ccc3ccccc3c2)C(=O)NCCCC[C@H](NC(=O)N[C@@H](CCC(=O)O)C(=O)O)C(=O)O)nn1)C[B-](F)(F)[18F] [^18F-HTK01146] ?
Given back: 0.75

Asked: Which measured Biodistribution Spleen value corresponds to C[N+](C)(Cc1ccc(C(=O)NCCCC[C@H](NC(=O)N[C@@H](CCC(=O)O)C(=O)O)C(=O)O)cc1)C[B-](F)(F)[18F] ?
Given back: 2.67

Asked: Which measured Biodistribution Spleen value corresponds to O=C(O)CC[C@H](NC(=O)N[C@@H](CCCCNC(=O)[C@H](Cc1ccc2ccccc2c1)NC(=O)[C@H]1CC[C@H](CNC(=O)Cn2cc(C[n+]3ccc([B-](F)(F)[18F])cc3)nn2)CC1)C(=O)O)C(=O)O [^18F-PSMA-617-PyrBF3] ?
Given back: 2.84
